Test system: wheat
protocol: Test B pre/postemergence wheat
Assay type: in vivo, Triticum aestivum
run.conditions: Preemergence, Rate 500 g/ha; scale of 0 to 10 where 0 is no effect and 10 is complete control
Quick reference: Plant response rating, Wheat of the listed items.
measured.property: Plant response rating, Wheat

* CC(C)N(C(=O)n1oc(=O)n(CC2=NOCCC2)c1=O)c1ccc(F)cc1 | 6
* CC(C)N(C(=O)n1oc(=O)n(CC2CCCCO2)c1=O)c1ccc(F)cc1 (centres unmarked) | 7
* CC(=O)OCC(CCl)n1c(=O)on(C(=O)N(c2ccc(F)cc2)C(C)C)c1=O (centres unmarked) | 0
* Cc1ccccc1-n1c(=O)on(C(=O)N(c2ccc(F)cc2)C(C)C2CC2)c1=O (centres unmarked) | 0
* CCOC(Cn1c(=O)on(C(=O)N(c2ccccc2)C(C)C)c1=O)OCC | 0

----------
Quick reference: Plant response rating, B. signalgrass of the listed items.
Test system: surinam grass
protocol: Test B pre/postemergence surinam grass
Format: in vivo, Brachiaria decumbens
run.conditions: Rate 250 g/ha, Postemergence; scale of 0 to 10 where 0 is no effect and 10 is complete control
measured.property: Plant response rating, B. signalgrass

* CC(C)N(C(=O)n1oc(=O)n(C2CCC2)c1=O)c1ccc(Cl)cc1 | 0
* CCOC(=O)C=C(Cn1c(=O)on(C(=O)N(c2ccccc2)C(C)C)c1=O)OCC | 0
* CC(C)C(C)n1c(=O)on(C(=O)N(c2ccc(F)cc2F)C(C)C)c1=O (stereo not drawn) | 1

----------
Tested on: wheat
protocol: Test B pre/postemergence wheat
Type: in vivo, Triticum aestivum
run.conditions: Rate 500 g/ha, Postemergence; scale 0 to 10, 0 no effect, 10 complete control
measured.property: Wheat plant response rating

* CC(C)N(C(=O)n1oc(=O)n(C2CCCCC2)c1=O)c1ccc(Cl)cc1 [Compound 111] | 0
* Cc1nn(C)c(C)c1-n1c(=O)on(C(=O)N(c2ccc(F)cc2)C(C)C)c1=O [Compound 75] | 4
* Cc1ccccc1-n1c(=O)on(C(=O)N(c2ccc(C#N)cc2)C(C)C)c1=O [Compound 51] | 0

----------
System: blackgrass
protocol: Test B pre/postemergence blackgrass
Assay type: in vivo, Alopecurus myosuroides
run.conditions: Rate 250 g/ha, Postemergence; scale of 0 to 10 where 0 is no effect and 10 is complete control
measured.property: Plant response rating, Blackgrass

- CCN(CC)C(=O)n1oc(=O)n(C2CC2)c1=O: 0
- CC(C)N(C(=O)n1oc(=O)n(CC2CC2)c1=O)c1ccccc1: 8
- CC(C)N(C(=O)n1oc(=O)n(C2CC3CCC2C3)c1=O)c1ccc(F)cc1F (centres unmarked): 0
- CC(C)N(C(=O)n1oc(=O)n(C2CCCC2)c1=O)c1ccc(F)cc1F: 7
- CC(C)=CCn1c(=O)on(C(=O)N(c2ccc(F)cc2)C(C)C)c1=O: 2

----------
Tested on: blackgrass
protocol: Test B pre/postemergence blackgrass
Assay type: in vivo, Alopecurus myosuroides
run.conditions: Preemergence, Rate 250 g/ha; scale of 0 to 10 where 0 is no effect and 10 is complete control
measured.property: Plant response rating, Blackgrass

* Cc1ccccc1-n1c(=O)on(C(=O)N(c2ccc(C#N)cc2)C(C)C)c1=O [Compound 51] | 0
* Cc1nn(C)c(C)c1-n1c(=O)on(C(=O)N(c2ccc(F)cc2)C(C)C)c1=O [Compound 75] | 7
* CC(C)N(C(=O)n1oc(=O)n(Cc2cccs2)c1=O)c1ccccc1 [Compound 103] | 3

----------
Quick reference: Sugarbeets plant response rating (0 to 10 scale) of the listed items.
System: sugar beet
protocol: Test B pre/postemergence sugar beet
Type: in vivo, Beta vulgaris
run.conditions: Preemergence, Rate 125 g/ha; 0 is no effect, 10 is complete control
Protocol: […] At the same time, these crop and weed species were also treated with postemergence applications of test chemicals formulated in the same manner. […] Treated plants and controls were maintained in a greenhouse for twelve to sixteen days, after which all species were compared to controls and visually evaluated. […]
measured.property: Sugarbeets plant response rating (0 to 10 scale)

- CCn1c(=O)on(C(=O)N(c2ccc(Cl)cc2)C(C)C)c1=O [Compound 108]: 3
- CCCn1c(=O)on(C(=O)N(c2ccc(Cl)cc2)C(C)C)c1=O [Compound 119]: 4
- C=CCn1c(=O)on(C(=O)N(c2ccc(F)cc2)C2CCC2)c1=O [Compound 194]: 0

----------
Quick reference: B. signalgrass plant response rating of the listed items.
Test system: surinam grass
protocol: Test B pre/postemergence surinam grass
Type: in vivo, Brachiaria decumbens
run.conditions: Preemergence, Rate 62 g/ha; scale 0 to 10 (0 no effect, 10 complete control)
measured.property: B. signalgrass plant response rating

* CC(C)N(C(=O)n1oc(=O)n(C2CCCCC2C(F)(F)F)c1=O)c1ccc(F)cc1 (stereo not shown) | 0
* CC(C)N(C(=O)n1oc(=O)n(CC(C)[N+](=O)[O-])c1=O)c1ccccc1 (stereo not shown) | 0
* CC(C)N(C(=O)n1oc(=O)n(CC2CCCCO2)c1=O)c1ccc(F)cc1 (stereo not shown) | 3
* CCc1noc(CC)c1-n1c(=O)on(C(=O)N(c2ccc(F)cc2)C(C)C)c1=O | 0

----------
Quick reference: Plant response rating, Crabgrass of the listed items.
System: crabgrass
protocol: Test B pre/postemergence crabgrass
Assay type: in vivo, Digitaria sanguinalis
run.conditions: Postemergence, Rate 62 g/ha; scale 0 to 10, 0 is no effect, 10 is complete control
measured.property: Plant response rating, Crabgrass

- CC(C)N(C(=O)n1oc(=O)n(CC2=NOCCC2)c1=O)c1ccc(F)cc1: 3
- C#CCCn1c(=O)on(C(=O)N(c2ccc(F)cc2F)C(C)C)c1=O: 3
- CC(C)N(C(=O)n1oc(=O)n(CCCC#N)c1=O)c1ccc(F)cc1: 7
- C#CCn1c(=O)on(C(=O)N(c2ccc(F)cc2)C(C)C)c1=O: 2
- CC(C)N(C(=O)n1oc(=O)n(CCC(=O)N(C)C)c1=O)c1ccccc1: 1
- CC(C)N(C(=O)n1oc(=O)n(C(CCl)CCl)c1=O)c1ccc(F)cc1: 5
- CC(C)N(C(=O)n1oc(=O)n(CC2CCCCO2)c1=O)c1ccc(F)cc1 (stereo not shown): 6

----------
Quick reference: B. signalgrass plant response rating of the listed items.
System: surinam grass
protocol: Test B pre/postemergence surinam grass
Format: in vivo, Brachiaria decumbens
run.conditions: Preemergence, Rate 62 g/ha; scale of 0 to 10 where 0 is no effect and 10 is complete control
measured.property: B. signalgrass plant response rating

* CC1CCCCC1n1c(=O)on(C(=O)N(c2ccc(F)cc2F)C(C)C)c1=O (stereo not drawn) [Compound 172] | 2
* CC(C)N(C(=O)n1oc(=O)n(C2CCCC2)c1=O)c1ccc(F)cc1F [Compound 284] | 5
* C=CCn1c(=O)on(C(=O)N(c2ccc(F)cc2)C2CCC2)c1=O [Compound 194] | 0
* CC(C)N(C(=O)n1oc(=O)n(C(C)C(=O)c2ccccc2)c1=O)c1ccc(F)cc1 (stereo not drawn) [Compound 260] | 0
* CC(C)N(C(=O)n1oc(=O)n(CCC(F)=C(F)F)c1=O)c1ccc(F)cc1 [Compound 218] | 0
* Cc1nc(C(C)n2c(=O)on(C(=O)N(c3ccccc3)C(C)C)c2=O)sc1C (stereo not drawn) [Compound 756] | 0
